All figures here come from patent US5219884A.

- TEST SUMMARY: in vitro
- Assay type: cell-based, human
- CONDITION LABEL: human, pc-14 cells, 100.0 μg/ml; read-out: Suppression
VALUE KIND: cytotoxicity at 72 h
Note: state the figure and append the unit.

Fill blank: measured cytotoxicity at 72 h of the compound CCCCCCC(=O)CCCCCC/C=C/CC1OC(=O)C(N)(CO)C1O (stereo not shown) [Example 4] is ____.
95.3%

----------
- TEST SUMMARY: in vitro
- Type: cell-based, human
- CONDITION LABEL: human, hl60 cells, 0.1 μg/ml; read-out: Suppression
I'd appreciate it if you could supply cytotoxicity at 72 h values for the items below.
Could you give me the number in %? Just the number is fine.

Looking for the measured cytotoxicity at 72 h of CCCCCCC(O)CCCCCCCCCC1OC(=O)C(N)(CO)C1O (centres unmarked) [Example 10] , can you help?
14.4

# cytotoxicity at 72 h lookup, item CCCCCCC(O)CCCCCC/C=C/CC(O)C(O)C(N)(CO)C(=O)O (centres unmarked) [Example 6]
16

Reported cytotoxicity at 72 h for CCCCCCC(=O)CCCCCC/C=C/CC1OC(=O)C(N)(CO)C1O (centres unmarked) [Example 4] : what is it?
23.4

Entry CCCCCCC(=O)CCCCCCCCCC1OC(=O)C(N)(CO)C1O (centres unmarked) [Example 7] : reported cytotoxicity at 72 h = ?
17.2

cytotoxicity at 72 h for CCCCCCC(O)CCCCCC/C=C/CC1OC(=O)C(N)(CO)C1O (centres unmarked) [Example 8] ?
16.9

cytotoxicity at 72 h for CCCCCCC(=O)CCCCCCCCCC(O)C(O)C(N)(CO)C(=O)O (centres unmarked) [Example 5] ?
20.5

Param item = CCCCCCC(O)CCCCCCCCCC(O)C(O)C(N)(CO)C(=O)O (centres unmarked) [Example 9] ; retrieve measured cytotoxicity at 72 h.
13.8

Reported cytotoxicity at 72 h for CCCCCCC(=O)CCCCCC/C=C/CC1OC(=O)C(CO)(NC(C)=O)C1O (centres unmarked) [Example 11] : what is it?
9
